Measured Ki, listed per entry for reference.
- Measured on: Nitric oxide synthase 1 (Rattus norvegicus)
- Sequence (P29476 whole entry): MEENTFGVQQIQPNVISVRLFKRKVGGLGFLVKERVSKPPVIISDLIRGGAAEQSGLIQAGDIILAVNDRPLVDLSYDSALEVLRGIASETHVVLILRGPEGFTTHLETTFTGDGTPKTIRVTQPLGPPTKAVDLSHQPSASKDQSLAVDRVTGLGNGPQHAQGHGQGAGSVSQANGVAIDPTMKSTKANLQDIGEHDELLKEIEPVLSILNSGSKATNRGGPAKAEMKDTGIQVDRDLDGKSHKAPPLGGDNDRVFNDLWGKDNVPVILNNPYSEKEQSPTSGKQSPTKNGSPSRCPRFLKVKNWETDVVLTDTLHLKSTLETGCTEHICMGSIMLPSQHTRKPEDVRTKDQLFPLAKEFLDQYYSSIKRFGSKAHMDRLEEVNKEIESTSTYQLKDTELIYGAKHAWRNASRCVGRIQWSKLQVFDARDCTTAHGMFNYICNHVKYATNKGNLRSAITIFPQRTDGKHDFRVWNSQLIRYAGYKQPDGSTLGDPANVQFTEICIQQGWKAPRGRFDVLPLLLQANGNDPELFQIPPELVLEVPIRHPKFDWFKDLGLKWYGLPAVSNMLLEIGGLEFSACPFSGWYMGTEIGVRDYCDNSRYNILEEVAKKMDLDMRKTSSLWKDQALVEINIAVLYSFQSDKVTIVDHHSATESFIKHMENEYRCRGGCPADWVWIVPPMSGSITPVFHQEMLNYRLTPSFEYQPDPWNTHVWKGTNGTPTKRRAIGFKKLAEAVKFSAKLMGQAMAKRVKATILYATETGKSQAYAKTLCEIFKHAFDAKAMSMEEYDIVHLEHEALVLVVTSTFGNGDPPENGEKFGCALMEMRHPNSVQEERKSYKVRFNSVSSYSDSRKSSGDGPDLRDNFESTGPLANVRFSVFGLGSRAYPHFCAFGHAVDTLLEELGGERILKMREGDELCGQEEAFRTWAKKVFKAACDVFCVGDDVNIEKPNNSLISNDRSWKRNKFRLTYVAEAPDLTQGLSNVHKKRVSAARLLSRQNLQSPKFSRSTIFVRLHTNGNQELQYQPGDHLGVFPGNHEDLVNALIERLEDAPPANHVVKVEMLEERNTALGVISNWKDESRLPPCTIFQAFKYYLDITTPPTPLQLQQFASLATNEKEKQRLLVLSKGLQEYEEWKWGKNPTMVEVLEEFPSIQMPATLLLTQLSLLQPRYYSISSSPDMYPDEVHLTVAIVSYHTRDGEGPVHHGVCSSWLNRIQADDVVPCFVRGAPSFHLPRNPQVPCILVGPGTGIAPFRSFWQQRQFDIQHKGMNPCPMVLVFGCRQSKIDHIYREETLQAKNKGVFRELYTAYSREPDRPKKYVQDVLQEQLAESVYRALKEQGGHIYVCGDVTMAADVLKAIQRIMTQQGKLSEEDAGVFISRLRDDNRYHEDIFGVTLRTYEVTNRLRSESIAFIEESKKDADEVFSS
- Assay procedure: Inhibition of rat recombinant nNOS expressed in Escherichia coli using L-arginine as substrate assessed as reduction in NO production measured for 6 mins in presence of tetrahydrobiopterin by hemoglobin capture assay
Please respond with the number in µM and leave the unit unwritten.

{"columns": ["Sample smiles", "Experimental result"],
 "data": [
  ["Cc1cc(N)nc(CCc2cccnc2)c1", 0.706]
]}

Item Cc1cc(N)nc(CCc2cncc(N3CCCCC3)c2)c1 : provide Ki 1.87

* * *

- Assay procedure: Drug metabolism in human liver microsomes at 1 uM preincubated for 5 mins followed by NADPH addition measured after […] mins by LC-MS/MS analysis
- Type: ADME
- Applied conditions: read-out: Drug metabolism
Quantity measured: metabolised at […], 1 µM (%)
Enter your answer as a number in %; do not include the unit.

Please give measured metabolised at […], 1 µM of the following entry: CNCCCc1cncc(CCc2cc(C)cc(N)n2)c1 23
